# METHOD: Simple acute toxicity test (intravenous injection)
# Assay type: in vivo, male mice of ddY strain
# STATED_CONDITIONS: 50 mg/kg, i.v. (tail vein), ddY mice
# Protocol: Example of Test 1 (Simple Acute Toxicity Test) The simple acute toxicity test was carried out by an intravenous injection of compounds of the present invention. Into the tail vein of male mice of ddY strain weighing 18~20 g which have been kept under the conditions at the temperature of 23°±1° C. and in the humidity of 55 ±7% were injected a solution of the compound of the present invention dissolved in the physiological saline containing the desired dose per 20 g body weighing 0.2 ml. […]
List of Mortality values.
MEASURE: Mortality

MOLECULE: CCCOC1OC(CO)C(OC2OC(C)C(O)C(O)C2O)C(OC2OC(CO)C(O)C(OC3(C(=O)[O-])CC(O)C(NC(C)=O)C(C(O)C(O)CO)O3)C2O)C1NC(C)=O.[Na+] (stereo not drawn) [Compound 90]
MEASURED_VALUE: 0/3
//
MOLECULE: CCCOC1OC(CO)C(OC2OC(C)C(O)C(O)C2O)C(OC2OC(CO)C(O)C(OCC(=O)[O-])C2O)C1NC(C)=O.[Na+] (stereo not drawn)
MEASURED_VALUE: 0/3
//
MOLECULE: CCCOC1OC(CO)C(OC2OC(CO)C(O)C(OCC(=O)[O-])C2OCC(=O)[O-])C(OC2OC(C)C(O)C(O)C2O)C1NC(C)=O.[Na+].[Na+] (stereo not drawn)
MEASURED_VALUE: 0/3

This collection of values is drawn from patent US5763413A.
